The measurements presented in this section are drawn from patent US8592421B2.

experiment: Chronic toxicity of suppositories: indexes of peripheral blood; format: in vivo, rats; details: male rats, suppositories rectally, 500 mg/kg, 1 month; control 2.8%0.3
Catalogue of Reticulocytes readings, one per entry.
property name: Reticulocytes (%)

1. O=c1[nH][nH]c(=O)c2c(Br)ncnc12.[K]    3.0
2. O=c1[nH]n([C@@H]2O[C@H](CO)[C@@H](O)[C@H]2O)c(=O)c2nc(O)cnc12.[Na].[Na]    3.1
3. Nc1cccc2c(=O)[nH][nH]c(=O)c12.[Na]    3.1
4. O=C([O-])c1ncnc2c(=O)n([C@@H]3O[C@H](CO)[C@@H](O)[C@H]3O)[nH]c(=O)c12.[Na+]    3.2

----------
experiment: Morphine abstinence model: indicator enzymes ALT, AST, γ-GTP in blood plasma; conditions: control + Morphine + Compound, 20.0 mg/kg intramuscularly three times a day; control 6.261 ± 1.80
property name: γ-GTP in blood plasma, Ci (mE/l)

1. O=c1[nH][nH]c(=O)c2c(Br)ncnc12.[K]    10.32
2. O=c1[nH][nH]c(=O)c2nccnc12.[Li]    11.37
3. Nc1cccc2c(=O)[nH][nH]c(=O)c12.[Na]    10.69
4. O=c1[nH][nH]c(=O)c2ncccc12.[Li]    12.52

----------
experiment: Chronic toxicity of suppositories: indexes of peripheral blood; assay type: in vivo, rats; conditions: male rats, suppositories rectally, 50 mg/kg, 2 months; control 19.1 ± 1.9
property name: Leukocyte (thousand/mm^3)

1. O=c1[nH][nH]c(=O)c2c(Br)ncnc12.[K]    16.7
2. O=C([O-])c1ncnc2c(=O)n([C@@H]3O[C@H](CO)[C@@H](O)[C@H]3O)[nH]c(=O)c12.[Na+]    17.8
3. Nc1cccc2c(=O)[nH][nH]c(=O)c12.[Na]    16.3
4. O=c1[nH]n([C@@H]2O[C@H](CO)[C@@H](O)[C@H]2O)c(=O)c2nc(O)cnc12.[Na].[Na]    17.6

----------
Catalogue of MA - drop of optical density readings, one per entry.
tested on: thrombocytes; experiment: ADP-induced aggregation of thrombocytes after intravenous administration (in vivo); design: species or system rabbit; conditions: 30.0 mg/kg intravenously, after 60 minutes; control 61.0 ± 1.3
property name: MA - drop of optical density (%)

1) Nc1cccc2c(=O)[nH][nH]c(=O)c12.[Na]    37.8
2) Nc1ccnc2c(=O)n([C@@H]3O[C@H](CO)[C@@H](O)[C@H]3O)[nH]c(=O)c12    40.1
3) O=c1[nH][nH]c(=O)c2c(Br)ncnc12.[K]    41.6
4) Nc1cnc2c(=O)n([C@@H]3O[C@H](CO)[C@@H](O)[C@H]3O)[nH]c(=O)c2n1.[Na]    45.0

----------
Catalogue of i readings, one per entry.
assay: Electrochemical activity: polarographic reduction on mercury dripping electrode; assay type: physicochemical; details: pH 7.2; 2.0% sodium chloride background, 37° C., 9·10^−4 M, forward trace; average for the group of compounds
property name: i

1. Nc1cccc2c(=O)n([C@@H]3O[C@H](CO)[C@@H](O)[C@H]3O)[nH]c(=O)c12.[Na] [Compound 10]    0.30 ± 0.01 mkA
2. O=C([O-])c1ccc2c(=O)[nH][nH]c(=O)c2c1.O=C([O-])c1ccc2c(=O)[nH][nH]c(=O)c2c1.[Na+].[Na+] [Compound 18]    0.30 ± 0.01 mkA
3. O=c1[nH][nH]c(=O)c2ncncc12.[Li] [Compound 35]    0.26 ± 0.02 mkA
4. O=c1[nH][nH]c(=O)c2ncccc12.[Na] [Compound 7]    0.31 ± 0.02 mkA
5. O=c1[nH]n([C@@H]2O[C@H](CO)[C@@H](O)[C@H]2O)c(=O)c2ncnc(O)c12.[Na] [Compound 33]    0.26 ± 0.02 mkA
6. O=c1[nH]n([C@@H]2O[C@H](CO)[C@@H](O)[C@H]2O)c(=O)c2nc(O)cnc12.[Na].[Na] [Compound 23]    0.33 ± 0.04 mkA
7. Nc1ncc2c(=O)[nH][nH]c(=O)c2n1 [Compound 36]    0.26 ± 0.02 mkA
8. O=c1[nH]n([C@@H]2O[C@H](CO)[C@@H](O)[C@H]2O)c(=O)c2ncccc12.[Na] [Compound 1]    0.31 ± 0.02 mkA

----------
Catalogue of γ-GTP in blood plasma, Ci readings, one per entry.
assay: Morphine abstinence model: indicator enzymes ALT, AST, γ-GTP in blood plasma; conditions: Control + compound, 20.0 mg/kg intramuscularly three times a day; control 6.261 ± 1.80
property name: γ-GTP in blood plasma, Ci (mE/l)

1) Nc1cccc2c(=O)[nH][nH]c(=O)c12.[Na]    7.03
2) O=c1[nH][nH]c(=O)c2nccnc12.[Li]    7.57
3) O=c1[nH][nH]c(=O)c2c(Br)ncnc12.[K]    8.14
4) O=c1[nH][nH]c(=O)c2ncccc12.[Li]    8.27

----------
Catalogue of MA - drop of optical density readings, one per entry.
Test system: thrombocytes
Test: ADP-induced aggregation of thrombocytes after intravenous administration (in vivo)
Design: species or system rabbit
Details: 15.0 mg/kg intravenously, after 120 minutes; control 50.1 ± 1.7
Protocol: The experiments were carried out on male rabbits of the “Chinchilla” breed having a mass of 2.7±0.3 kg. 18-24 hours prior to the experiment they were deprived of feed while preserving free access to water. […] The measurements of the optical density of the samples were made on two-channel aggregometer of the “Chronolog” Company (USA). […] The index of maximum amplitude of aggregation (MA) in percent of a fall of the plasma optical density under effect of the aggregation inductor was recorded. […]
property name: MA - drop of optical density (%)

1) Nc1cccc2c(=O)[nH][nH]c(=O)c12.[Na]    48.3
2) Nc1cnc2c(=O)n([C@@H]3O[C@H](CO)[C@@H](O)[C@H]3O)[nH]c(=O)c2n1.[Na]    49.1
3) Nc1ccnc2c(=O)n([C@@H]3O[C@H](CO)[C@@H](O)[C@H]3O)[nH]c(=O)c12    49.2
4) O=c1[nH][nH]c(=O)c2c(Br)ncnc12.[K]    48.7

----------
system: plasma hemostasis; experiment: Thrombin time after intravenous administration; type: in vivo, rabbit; settings: 60.0 mg/kg intravenously, after 15 minutes; control 15.2
Marks after values point to notes of the source that are not given here.
property name: thrombin time, T2

1) O=c1[nH][nH]c(=O)c2c(Br)ncnc12.[K]    16.6* s
2) Nc1cccc2c(=O)[nH][nH]c(=O)c12.[Na]    16.8* s
3) Nc1cnc2c(=O)n([C@@H]3O[C@H](CO)[C@@H](O)[C@H]3O)[nH]c(=O)c2n1.[Na]    16.2* s
4) Nc1ccnc2c(=O)n([C@@H]3O[C@H](CO)[C@@H](O)[C@H]3O)[nH]c(=O)c12    16.0* s

----------
assay: Chronic toxicity of suppositories: indexes of peripheral blood; type: in vivo, rats; details: male rats, suppositories rectally, 500 mg/kg, 2 months; control 2.4 ± 0.4
property name: Stab neutrophil (%)

1. O=c1[nH]n([C@@H]2O[C@H](CO)[C@@H](O)[C@H]2O)c(=O)c2nc(O)cnc12.[Na].[Na] [Compound 23]    1.6
2. O=c1[nH][nH]c(=O)c2c(Br)ncnc12.[K] [Compound 37]    1.1
3. O=C([O-])c1ncnc2c(=O)n([C@@H]3O[C@H](CO)[C@@H](O)[C@H]3O)[nH]c(=O)c12.[Na+] [Compound 34]    1.4

----------
tested on: thrombocytes; test: ADP-induced aggregation of thrombocytes after intravenous administration (in vivo); design: species or system rabbit; settings: 60.0 mg/kg intravenously, after 15 minutes; control 48.6 ± 1.3
Catalogue of MA - drop of optical density readings, one per entry.
property name: MA - drop of optical density

1) O=c1[nH][nH]c(=O)c2c(Br)ncnc12.[K]    43.4 ± 1.8 %
2) Nc1cccc2c(=O)[nH][nH]c(=O)c12.[Na]    43.1 ± 1.5 %
3) Nc1cnc2c(=O)n([C@@H]3O[C@H](CO)[C@@H](O)[C@H]3O)[nH]c(=O)c2n1.[Na]    45.1 ± 0.9 %
4) Nc1ccnc2c(=O)n([C@@H]3O[C@H](CO)[C@@H](O)[C@H]3O)[nH]c(=O)c12    45.2 ± 1.2 %

----------
assay: Morphine abstinence model: nitrites/nitrates NOX− in blood plasma, liver and brain; type: in vivo, rats Wistar; settings: Control + Morphine + compound, 20.0 mg/kg intramuscularly; control 5.66 ± 0.19
property name: Nitrites in brain: Mesencephalon

1) Nc1cccc2c(=O)[nH][nH]c(=O)c12.[Na] [Compound 15]    5.50 ± 0.43 nmol/mg of protein
2) O=c1[nH][nH]c(=O)c2c(Br)ncnc12.[K] [Compound 37]    5.63 ± 0.37 nmol/mg of protein
3) O=c1[nH][nH]c(=O)c2ncccc12.[Li] [Compound 6]    5.76 ± 0.94 nmol/mg of protein
4) O=c1[nH][nH]c(=O)c2nccnc12.[Li] [Compound 25]    5.91 ± 0.74 nmol/mg of protein
